- assayTarget: recombinant IDO1 (Homo sapiens, UniProt P14902)
- Sequence (P14902 whole entry, species assumed): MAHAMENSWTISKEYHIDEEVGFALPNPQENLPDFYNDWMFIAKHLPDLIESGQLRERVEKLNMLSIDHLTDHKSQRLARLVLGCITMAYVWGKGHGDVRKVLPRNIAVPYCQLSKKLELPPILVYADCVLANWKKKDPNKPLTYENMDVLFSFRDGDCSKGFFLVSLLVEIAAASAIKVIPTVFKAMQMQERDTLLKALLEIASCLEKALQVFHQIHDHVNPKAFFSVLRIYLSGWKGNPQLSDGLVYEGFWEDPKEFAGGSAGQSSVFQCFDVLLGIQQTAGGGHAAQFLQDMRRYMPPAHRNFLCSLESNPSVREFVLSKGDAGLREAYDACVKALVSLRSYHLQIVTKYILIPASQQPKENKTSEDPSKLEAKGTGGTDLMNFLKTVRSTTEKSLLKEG
- experimentNotes: IDO1 enzymatic assay (UV absorption, N-formylkynurenine formation)
- assaySetup: 40 nM IDO1, 900 μM tryptophan, 180 min, room temperature; read-out: Enzyme IDO IC50
pIC50: −log10 of the molar value.
Item-by-item account of pIC50

Reference set (2 entries):
compound: OC1CCC(C(O)CC2(C(F)(F)F)c3c(F)cccc3-c3cncn32)CC1 (stereo not shown) [Cmpd 293]
pIC50: < 4.00
--
compound: OC1c2ccccc2C(CC(O)C2CCCCC2)n2cncc21 (stereo not shown)
pIC50: < 4.52

Requested read-out: pIC50. Entry: OC(CC1(C(F)(F)F)c2ccccc2-c2cncn21)C1CCCCC1 (single isomer, unassigned) [Cmpd 290]
< 4.00

Requested read-out: pIC50. Entry: CC1c2ccccc2-c2cncn2C1C(O)C1CCCCC1 (stereo not shown) [Cmpd 294]
< 4.52

* * *

Item-by-item account of Enzyme TDO IC50 ratio compared to Ref. Cmpd 1
- assayTarget: recombinant TDO2 (Homo sapiens)
- Sequence (P48775 whole entry, species assumed): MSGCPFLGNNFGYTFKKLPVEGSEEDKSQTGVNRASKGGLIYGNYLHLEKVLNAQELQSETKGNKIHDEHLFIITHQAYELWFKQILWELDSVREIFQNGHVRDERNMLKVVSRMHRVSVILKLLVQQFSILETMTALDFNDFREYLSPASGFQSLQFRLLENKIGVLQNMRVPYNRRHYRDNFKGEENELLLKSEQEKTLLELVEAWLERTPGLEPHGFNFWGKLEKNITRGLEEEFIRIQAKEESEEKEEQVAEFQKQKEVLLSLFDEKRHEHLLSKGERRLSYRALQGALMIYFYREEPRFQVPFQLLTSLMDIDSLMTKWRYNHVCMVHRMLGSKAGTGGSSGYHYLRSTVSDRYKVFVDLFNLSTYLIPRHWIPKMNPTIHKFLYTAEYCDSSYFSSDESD
- experimentNotes: TDO2 enzymatic assay (UV absorption, N-formylkynurenine formation)
- Assay type: biochemical
- assaySetup: IC50 of compound divided by IC50 of Ref. Cmpd 1
Note: the reply should be a number with no unit written.

compound: FC(CC1Cc2ccccc2-c2cncn21)C1CCCCC1 (stereo not drawn) [Cmpd 311]
measuredNumber: 0.33

Requested read-out: Enzyme TDO IC50 ratio compared to Ref. Cmpd 1. Entry: O[C@@H](C[C@H]1Cn2cncc2-c2ccccc21)C1CCCCC1 (racemic)
0.78

Requested read-out: Enzyme TDO IC50 ratio compared to Ref. Cmpd 1. Entry: OC(CC1c2ccccc2Cc2cncn21)C1CCCCC1 (stereo not drawn)
6.90

Requested read-out: Enzyme TDO IC50 ratio compared to Ref. Cmpd 1. Entry: CC1(CC(O)C2CCCCC2)c2ccccc2-c2cncn21 (stereo not drawn)
2.30

Requested read-out: Enzyme TDO IC50 ratio compared to Ref. Cmpd 1. Entry: OC(CC1C(O)c2ccccc2-c2cncn21)C1CCCCC1 (stereo not drawn) [Cmpd 309]
33.33

Requested read-out: Enzyme TDO IC50 ratio compared to Ref. Cmpd 1. Entry: OC(CC1Cc2ccccc2-c2cncn21)C1CCCCC1 (stereo not drawn)
0.43
